Reference source: paper PMC9151520

System: p53 signaling (p53RE-bla HCT-116 cells)
CONDITION_SUMMARY: read-out: p53 activation EC50
QUANTITY: EC50

Per the records, this compound ( CCOP(=S)(OCC)OC(Cl)C(Cl)(Cl)Cl (centres unmarked) ) has EC50 equal to 11.7 µM

Sure, the documented EC50 for CCN(CC)C(=O)SCc1ccc(Cl)cc1 is 1.63 µM

Documented EC50 of CCOP(=S)(OCC)SCSP(=S)(OCC)OCC : 2.04 µM

Input CCOP(=S)(Oc1cnc(C(C)(C)C)nc1)OC(C)C (centres unmarked) . Output EC50: 1.63 µM

Notebook: COP(=S)(OC)Oc1cc(Cl)c(Br)cc1Cl , EC50 read as 15.1 µM

Field EC50 (entry COP(=O)(OC)O/C(C)=C/C(=O)N(C)C ) reads 14.3 µM

Noted for COP(=S)(OC)Oc1cc(Cl)c(I)cc1Cl : its EC50 reads 26.6 µM

The value of EC50 measured for the compound Nc1ccc2c(O)cc(S(=O)(=O)O)cc2c1 turned out to be 10.9 µM
